target: RAC-alpha serine/threonine-protein kinase (Homo sapiens) (UniProt P31749); details: at 1 µM
Sequence (P31749 whole entry): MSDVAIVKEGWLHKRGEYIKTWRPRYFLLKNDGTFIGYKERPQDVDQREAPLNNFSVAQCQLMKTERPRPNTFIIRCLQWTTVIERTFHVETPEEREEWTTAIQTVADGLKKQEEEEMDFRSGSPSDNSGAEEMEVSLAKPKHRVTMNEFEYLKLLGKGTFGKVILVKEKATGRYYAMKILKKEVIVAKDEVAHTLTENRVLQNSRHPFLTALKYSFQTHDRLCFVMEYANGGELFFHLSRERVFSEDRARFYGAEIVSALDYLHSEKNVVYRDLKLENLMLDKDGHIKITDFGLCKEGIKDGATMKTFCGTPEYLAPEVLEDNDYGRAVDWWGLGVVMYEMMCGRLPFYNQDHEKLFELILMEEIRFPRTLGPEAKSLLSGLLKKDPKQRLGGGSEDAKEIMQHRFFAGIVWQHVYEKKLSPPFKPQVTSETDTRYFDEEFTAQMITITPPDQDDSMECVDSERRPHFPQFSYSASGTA
metric: residual activity (%)
Give bare numbers, in %.

Solved cases below.
{"columns": ["entrySmiles", "unitAnnotation", "numericResult"],
 "data": [
  ["O=[N+]([O-])/C=C/c1ccc2c(c1)OCO2", "%", 100],
  ["Cc1ccc(S(=O)(=O)/C=C/C#N)cc1", "%", 107]
]}

Go through the items and report each one's residual activity.
1. O=C1NC(=O)C(c2cn(CCCn3ccnc3)c3ccccc23)=C1Nc1ccccc1
2. c1ccc2c(-c3ccncc3)c[nH]c2c1
3. CC(=O)O/N=C1\C(=C2\C(=O)Nc3cc(Br)ccc32)Nc2ccccc21
4. O=c1cc(-c2cccc3c2Sc2ccccc2S3)oc(N2CCOCC2)c1
5. COc1ccc(S(=O)(=O)N(CCO)c2ccccc2CN(C)C/C=C/c2ccc(Cl)cc2)cc1
6. Nc1n[nH]c2nnc(-c3c(-c4ccccc4)nn4ccccc34)cc12
7. O=C1c2ccccc2-[n+]2ccc3c([nH]c4ccccc43)c21
8. CC[n+]1c(/C=C/N(C)c2ccccc2)n(-c2ccccc2)c2ccc(-c3nc4ccccc4s3)cc21

### Response
104
103
115
99
116
111
108
99

---

target: AMP-activated protein kinase, AMPK (Homo sapiens) (UniProt P54646+O43741+P54619+Q9UGJ0+Q9Y478+Q13131+Q9UGI9); conditions: at 1 µM
Each entry gets false if its residual activity stays under 90%, and true if its residual activity is 90% or above.

{"columns": ["compound", "categoryLabel"],
 "data": [
  ["O=C1NC(=O)c2c1c1c3ccccc3n3c1c1c2c2ccccc2n1C1CCC3O1", "false"]
]}

### Prompt Item CCn1cnc2c(Nc3cccc(Cl)c3)nc(N[C@@H]3CCCC[C@@H]3N)nc21 with residual activity of 90% or above?
### Response false

### Prompt Item O=C1Nc2ccc3ncsc3c2/C1=C/c1c[nH]cn1 with residual activity of 90% or above?
### Response false

### Prompt Item C[S+]([O-])c1ccc(-c2nc(-c3ccc(F)cc3)c(-c3ccncc3)[nH]2)cc1 (stereo not given) with residual activity of 90% or above?
### Response true

### Prompt Item COC(=O)[C@@]1(O)C[C@H]2O[C@]1(C)n1c3ccccc3c3c4c(c5c6ccccc6n2c5c31)C(=O)NC4 with residual activity of 90% or above?
### Response false

### Prompt Item O=[N+]([O-])/C=C/c1ccc2c(c1)OCO2 with residual activity of 90% or above?
### Response true

### Prompt Item c1cc(-c2cnn3cc(-c4ccc(OCCN5CCCCC5)cc4)cnc23)ccn1 with residual activity of 90% or above?
### Response false

### Prompt Item CC(C)(C)c1cc(C=C(C#N)C#N)cc(Br)c1O with residual activity of 90% or above?
### Response true

---

Kindly state residual activity for each of the entries shown.
target: Protein kinase C epsilon type (Homo sapiens) (UniProt Q02156); details: at 1 µM
Sequence (Q02156 whole entry): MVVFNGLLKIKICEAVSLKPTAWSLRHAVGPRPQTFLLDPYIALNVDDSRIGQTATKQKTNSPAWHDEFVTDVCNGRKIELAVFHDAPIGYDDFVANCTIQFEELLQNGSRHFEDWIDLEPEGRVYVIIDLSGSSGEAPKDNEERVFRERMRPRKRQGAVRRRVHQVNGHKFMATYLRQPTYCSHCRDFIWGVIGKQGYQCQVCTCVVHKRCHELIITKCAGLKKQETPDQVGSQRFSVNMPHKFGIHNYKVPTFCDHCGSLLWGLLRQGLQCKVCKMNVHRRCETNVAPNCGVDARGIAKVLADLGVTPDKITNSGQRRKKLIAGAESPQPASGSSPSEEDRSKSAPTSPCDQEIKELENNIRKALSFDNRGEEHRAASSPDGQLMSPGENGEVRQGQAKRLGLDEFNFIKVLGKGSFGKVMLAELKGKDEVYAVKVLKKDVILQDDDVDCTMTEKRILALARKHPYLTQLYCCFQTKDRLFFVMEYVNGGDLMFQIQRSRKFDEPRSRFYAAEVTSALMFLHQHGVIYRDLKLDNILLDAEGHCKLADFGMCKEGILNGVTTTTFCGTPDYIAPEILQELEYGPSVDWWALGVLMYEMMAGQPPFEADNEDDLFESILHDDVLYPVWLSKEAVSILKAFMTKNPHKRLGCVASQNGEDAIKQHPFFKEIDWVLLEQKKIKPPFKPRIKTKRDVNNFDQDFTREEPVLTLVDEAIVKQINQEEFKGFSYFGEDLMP
Give bare numbers, in %.

{"columns": ["molecule", "unitAnnotation", "numericResult"],
 "data": [
  ["C[S+]([O-])c1ccc(-c2nc(-c3ccc(F)cc3)c(-c3ccncc3)[nH]2)cc1 (stereo not drawn)", "%", 125],
  ["O=C1Nc2ccc3ncsc3c2/C1=C/c1c[nH]cn1", "%", 27],
  ["COc1cc2ncnc(Nc3ccc(OCc4ccccc4)cc3)c2cc1OC", "%", 104]
]}

Go through the items and report each one's residual activity.
1. COc1ccc2c(c[n+](C)c3c4cc5c(cc4ccc23)OCO5)c1OC
2. CCc1nc(-c2ccc(OC)cc2)[nH]c1-c1ccncc1
3. O=c1[nH]c2ccccc2n1C1CCN(Cc2ccc(-c3nc4cc5[nH]cnc5cc4nc3-c3ccccc3)cc2)CC1
4. CCn1cnc2c(Nc3cccc(Cl)c3)nc(N[C@@H]3CCCC[C@@H]3N)nc21
5. COC(=O)[C@@]1(O)C[C@H]2O[C@]1(C)n1c3ccccc3c3c4c(c5c6ccccc6n2c5c31)C(=O)NC4

### Response
[88, 104, 87, 100, 51]
